particulars: in methylcyclohexane, 343.55 K
outcome_measure: solubility (mole fraction)
Respond with the number and no other words.

Retrieve solubility (mole fraction) measured for CC(C)COc1ccc(B(O)O)cc1 and print it. 0.118

###

particulars: in 3-pentanone, 348.15 K
outcome_measure: solubility (mole fraction)

Complete the entry with solubility (mole fraction) for CC(C)COc1cccc(B(O)O)c1 0.396

###

particulars: in dipropyl ether, 333.15 K
outcome_measure: solubility (mole fraction)
Reply briefly: the number, and no unit.

Please give the documented solubility (mole fraction) of CC(C)COc1ccc(B(O)O)cc1 0.196

###

particulars: in acetone, 309.35 K
outcome_measure: solubility (mole fraction)
Keep the answer to the number alone.

For the compound CC(C)COc1ccccc1B(O)O , give its measured solubility (mole fraction) value. 0.372

###

particulars: in dipropyl ether, 308.15 K
outcome_measure: solubility (mole fraction)
Number only, no unit.

State, in one line, measured solubility (mole fraction) of CC(C)COc1ccc(B(O)O)cc1 0.0497

###

particulars: in chloroform, 308.65 K
outcome_measure: solubility (mole fraction)
Reply briefly: the number, and no unit.

Output solubility (mole fraction) of CC(C)COc1ccc(B(O)O)cc1 0.0367

###

particulars: in dipropyl ether, 332.15 K
outcome_measure: solubility (mole fraction)

Tell us which solubility (mole fraction) value is on record for CC(C)COc1ccccc1B(O)O 0.499

###

particulars: in methylcyclohexane, 334.75 K
outcome_measure: solubility (mole fraction)
Give only the figure.

Supply measured solubility (mole fraction) of CC(C)COc1ccc(B(O)O)cc1 in your reply. 0.0514

###

particulars: in 3-pentanone, 298.65 K
outcome_measure: solubility (mole fraction)

Retrieve solubility (mole fraction) measured for CC(C)COc1ccc(B(O)O)cc1 and print it. 0.128

###

particulars: in chloroform, 322.35 K
outcome_measure: solubility (mole fraction)

Tell us which solubility (mole fraction) value is on record for CC(C)COc1ccc(B(O)O)cc1 0.0936

###

particulars: in 3-pentanone, 317.65 K
outcome_measure: solubility (mole fraction)
Enter a number only.

Input CC(C)COc1ccc(B(O)O)cc1 , output reported solubility (mole fraction). 0.232

###

particulars: in methylcyclohexane, 300.05 K
outcome_measure: solubility (mole fraction)
Give the value as a plain number.

Retrieve solubility (mole fraction) measured for CC(C)COc1ccccc1B(O)O and print it. 0.0138

###

particulars: in 3-pentanone, 300.85 K
outcome_measure: solubility (mole fraction)
Could you respond with only the numeric value?

Look up solubility (mole fraction) of CC(C)COc1ccccc1B(O)O and report it. 0.322

###

// solubility (mole fraction) lookup, one value per entry
particulars: in dipropyl ether, 320.15 K
Respond with the number and no other words.

• CC(C)COc1ccccc1B(O)O = 0.345

Then there is this compound:
Please supply the value of reported solubility (mole fraction) for the item CC(C)COc1ccc(B(O)O)cc1 0.0995

###

particulars: in chloroform, 320.65 K
outcome_measure: solubility (mole fraction)

Fill in reported solubility (mole fraction) for this entry: CC(C)COc1ccccc1B(O)O 0.465

###

particulars: in chloroform, 348.45 K
outcome_measure: solubility (mole fraction)
I'd appreciate a reply containing only the number, no unit.

Output solubility (mole fraction) of CC(C)COc1ccccc1B(O)O 0.774

###

particulars: in chloroform, 323.05 K
outcome_measure: solubility (mole fraction)
A bare number is all that is needed in reply.

Return reported solubility (mole fraction). Input compound: CC(C)COc1cccc(B(O)O)c1 0.067

Hey, just so you know, these numbers are from BigSolDB 2.1.
